Origin of the recorded values: ChEMBL document CHEMBL4038300

measurementTarget: Histamine H1 receptor (Homo sapiens, UniProt P35367)
Sequence (P35367 whole entry): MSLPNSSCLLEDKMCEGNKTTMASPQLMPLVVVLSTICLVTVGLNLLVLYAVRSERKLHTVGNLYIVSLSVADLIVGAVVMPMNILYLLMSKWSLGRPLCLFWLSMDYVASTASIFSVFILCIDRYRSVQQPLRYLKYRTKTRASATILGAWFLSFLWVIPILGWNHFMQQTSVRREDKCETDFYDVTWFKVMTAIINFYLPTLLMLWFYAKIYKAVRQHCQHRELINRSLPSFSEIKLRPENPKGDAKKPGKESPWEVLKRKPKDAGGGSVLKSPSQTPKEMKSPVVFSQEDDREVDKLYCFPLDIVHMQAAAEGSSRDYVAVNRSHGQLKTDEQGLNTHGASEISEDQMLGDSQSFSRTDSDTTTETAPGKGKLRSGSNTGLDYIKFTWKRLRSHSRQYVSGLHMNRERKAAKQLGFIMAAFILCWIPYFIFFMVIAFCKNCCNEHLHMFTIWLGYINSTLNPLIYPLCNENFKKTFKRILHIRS
measurementLabel: Ki

molecule	recordedValue
NS(=O)(=O)c1ccc(N2CCN(CC[C@@H]3OCCc4ccccc43)CC2)cc1 [SONEPIPRAZOLE]	> 1600 nM

----------
measurementTarget: 5-hydroxytryptamine receptor 1A (Homo sapiens)
Sequence (P08908 whole entry): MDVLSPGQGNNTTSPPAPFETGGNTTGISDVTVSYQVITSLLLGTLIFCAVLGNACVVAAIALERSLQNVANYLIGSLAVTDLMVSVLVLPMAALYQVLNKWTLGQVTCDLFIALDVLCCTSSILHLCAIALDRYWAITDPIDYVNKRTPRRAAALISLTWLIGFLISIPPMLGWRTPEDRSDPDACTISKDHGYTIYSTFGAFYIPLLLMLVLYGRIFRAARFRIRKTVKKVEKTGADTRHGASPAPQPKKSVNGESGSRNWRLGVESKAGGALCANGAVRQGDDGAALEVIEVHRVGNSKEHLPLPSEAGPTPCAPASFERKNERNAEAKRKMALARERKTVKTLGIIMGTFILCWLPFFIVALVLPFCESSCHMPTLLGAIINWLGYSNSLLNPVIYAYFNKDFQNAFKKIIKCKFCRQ
protocolNotes: Inhibition of serotonin 5-HT1A receptor (unknown origin)
Recorded Ki by entry
measurementLabel: Ki

compound	measurementTarget	recordedValue
Fc1ccc(OC[C@@H]2CC[C@H]3CN(c4ncc(F)cn4)CCN3C2)cc1	5-hydroxytryptamine receptor 1A (Homo sapiens)	180 nM
Fc1ccc(N2CCN(CCC3OCCc4ccccc43)CC2)cc1 (centres undefined)	5-hydroxytryptamine receptor 1A (Homo sapiens)	134 nM
NS(=O)(=O)c1ccc(N2CCN(CC[C@@H]3OCCc4ccccc43)CC2)cc1 [SONEPIPRAZOLE]	5-hydroxytryptamine receptor 1A (Homo sapiens)	> 1600 nM
OCc1ccc(N2CCN(Cc3nc4ccccc4[nH]3)CC2)cc1Cl	5-hydroxytryptamine receptor 1A (Homo sapiens)	> 3000 nM
